Data provenance is PubChem BioAssay (NCATS).

- run description: qHTS for Inhibitors of the vitamin D receptor (VDR): Hit Validation using a Texas Red Assay (AID 602201)
- condition details: VDR coregulator binding, Texas Red fluorescence polarization, agonist-bound VDR ligand-binding domain; series mostly up to 57.1 µM
Records with an inconclusive call do not appear. Active and inactive are the calls of the source. The call rests on the fitted dose curve; in most records, active means well fitted curve in the direction sought with a large enough effect; inconclusive means small, poorly fitted or top-dose-only effect, or another doubt; inactive means no such curve, though single readings can be large or run the other way.
// classify into 1.0 for active, 0.0 for inactive

* CC(C)(C)c1ccc(-n2nc(C#N)c(Cl)cc2=O)cc1 | 1.0

Next compound, please.
**Query** Which outcome was entered for the compound `O=C(NNc1cc(Br)c(O)c(Br)c1)c1ccccc1` in this test?
**Result** 1.0

---

- experimental target: Rap guanine nucleotide exchange factor 4 (Homo sapiens)
- run description: Confirmatory qHTS for agonist of cAMP-regulated guanine nucleotide exchange factor 4 (EPAC2) (AID 1645884);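 further: nucleotide exchange releases bodipy-GDP from Rap1 and this lowers its fluorescence; on the % scale 0 is the no-effect control and ±100 the full control effect; nearly all actives have a fitted effect of over 65% in size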
- condition details: EPAC2 GEF activity, Rap1B-BODIPY-GDP fluorescence; series mostly up to 154 µM
Records with an inconclusive call do not appear. Calls of active or inactive are those of the source. Calls come from the whole dose curve; as a rule, active = well fitted activation curve with a large enough effect; inconclusive = small, poorly fitted or top-dose-only effect; inactive = no such curve, though single readings can be large or run the other way.
recorded metric: activation

Some solved cases for reference:
- COC(=O)c1ccc(CSc2nc3scc(-c4cccs4)c3c(=O)[nH]2)o1: inactive
- Cn1cc([C@]2(O)C(=O)Nc3c(F)cccc32)c2ccccc21: inactive
- O=C(CSc1nc2ccsc2c(=O)n1NC(=O)c1ccccc1)Nc1nccs1: inactive
- Cc1ccc(CNC(=O)COc2ccc(C(=O)c3ccc(F)cc3)cc2)cc1: inactive

**Query** # activation lookup, item Cc1ccc(C2CC(=O)Oc3cc(C)c(Br)c(C)c32)cc1 (stereo not given)
**Result** inactive

---

- experimental target: Rap guanine nucleotide exchange factor 3 (Homo sapiens)
- run description: Counterscreen qHTS for agonist of cAMP-regulated guanine nucleotide exchange factor 3 (EPAC1) (AID 1645889); further: % of control where 0% means no effect; nearly all actives have a fitted effect of over 40% in size
- condition details: EPAC1 Rap1B-BODIPY-GDP exchange, fluorescence; series mostly up to 154 µM
Results filed as inconclusive are left out. Active and inactive are the calls of the source. Calls follow the shape of the dose curve; as a rule, active = well fitted activation curve with a large enough effect; inconclusive = small, poorly fitted or top-dose-only effect, or another doubt; inactive = no such curve, though single readings can be large or run the other way.
recorded metric: activation

Consider the worked cases shown below.
• Cc1cccc(NC(=O)C2CCCN(S(=O)(=O)c3ccc4c(c3)oc(=O)n4C)C2)c1 (stereo not given) = 7.38% [at 30.8 µM] (inactive)
• COc1ccc(C(=O)Nc2ccccc2-c2nnn(CC(N)=O)n2)cc1 = inactive
• CCc1cc(=O)oc2cc(C)cc(OCC(=O)N[C@@H](CSCc3ccccc3)C(=O)O)c12 = inactive
• COc1ccc(/C=N\Nc2ccc([N+](=O)[O-])cc2)c(C(=O)O)c1OC = inactive

Now look at this one.
**Query** // query activation value for entry `O=C(COC(=O)c1ccc([N+](=O)[O-])s1)NCc1ccccc1`
**Result** inactive

---

- experimental target: Rap guanine nucleotide exchange factor 4 (Homo sapiens) (UniProt Q8WZA2)
- Sequence (Q8WZA2 whole entry, looked up): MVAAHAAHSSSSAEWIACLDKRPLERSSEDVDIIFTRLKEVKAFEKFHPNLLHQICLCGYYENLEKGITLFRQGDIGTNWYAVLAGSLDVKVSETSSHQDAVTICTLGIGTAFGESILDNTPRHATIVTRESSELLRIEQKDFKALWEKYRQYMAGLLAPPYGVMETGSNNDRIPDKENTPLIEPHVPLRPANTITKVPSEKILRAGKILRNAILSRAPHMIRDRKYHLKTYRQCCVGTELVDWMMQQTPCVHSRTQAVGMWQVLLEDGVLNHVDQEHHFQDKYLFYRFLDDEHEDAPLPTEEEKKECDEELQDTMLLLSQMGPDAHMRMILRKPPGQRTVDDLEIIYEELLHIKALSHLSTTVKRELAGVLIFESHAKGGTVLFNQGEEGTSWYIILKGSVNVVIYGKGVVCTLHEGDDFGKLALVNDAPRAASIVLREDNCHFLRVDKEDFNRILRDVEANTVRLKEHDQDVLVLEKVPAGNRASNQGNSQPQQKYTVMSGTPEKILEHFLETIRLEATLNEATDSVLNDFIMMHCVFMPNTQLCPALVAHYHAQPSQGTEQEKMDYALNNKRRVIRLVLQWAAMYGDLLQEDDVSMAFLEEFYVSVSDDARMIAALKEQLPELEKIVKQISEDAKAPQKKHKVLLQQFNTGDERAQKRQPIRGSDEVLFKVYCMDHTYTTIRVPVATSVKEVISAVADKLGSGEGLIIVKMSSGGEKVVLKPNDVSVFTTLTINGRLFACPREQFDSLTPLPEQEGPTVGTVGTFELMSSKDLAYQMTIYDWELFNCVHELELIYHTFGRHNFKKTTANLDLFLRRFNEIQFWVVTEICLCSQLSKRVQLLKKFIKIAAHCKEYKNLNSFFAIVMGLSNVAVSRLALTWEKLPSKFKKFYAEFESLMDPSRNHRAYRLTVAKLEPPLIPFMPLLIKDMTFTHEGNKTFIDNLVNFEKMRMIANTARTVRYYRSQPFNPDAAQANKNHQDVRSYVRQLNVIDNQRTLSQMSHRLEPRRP
- run description: Confirmatory qHTS for antagonist of cAMP-regulated guanine nucleotide exchange factor 4 (EPAC2) (AID 1645885); further: on the % scale 0 is the no-effect control and ±100 the full control effect; nearly all actives have a fitted effect of over 25% in size
- condition details: EPAC2 Rap1B-BODIPY-GDP exchange fluorescence, biochemical; series mostly up to 12.7 µM
Records with an inconclusive call do not appear. The source made the active and inactive calls. The call rests on the fitted dose curve; in most records, active means well fitted inhibition curve with a large enough effect; inconclusive means small, poorly fitted or top-dose-only effect; inactive means no such curve, though single readings can be large or run the other way.
API: response.call in 1 (active), 0 (inactive)

- COc1ccc(/C=N/Nc2ncnc3sc(C)c(C)c23)cc1: 0

Shifting focus to the molecule that follows.
**Query** I'd appreciate the recorded outcome for `CC(=O)Nc1ccc(NC(=O)CNC(=O)COc2ccccc2)cc1` from this test.
**Result** 0

---

- experimental target: Rap guanine nucleotide exchange factor 3 (Homo sapiens)
- run description: Counterscreen qHTS for agonist of cAMP-regulated guanine nucleotide exchange factor 3 (EPAC1) (AID 1645889); further: % of control where 0% means no effect; nearly all actives have a fitted effect of over 40% in size
- condition details: EPAC1 Rap1B-BODIPY-GDP exchange, fluorescence; series mostly up to 154 µM
Results filed as inconclusive are left out. The source made the active and inactive calls. Calls come from the whole dose curve; as a rule, active = well fitted activation curve with a large enough effect; inconclusive = small, poorly fitted or top-dose-only effect, or another doubt; inactive = no such curve, though single readings can be large or run the other way.
recorded metric: activation

* COc1cccc(-c2nc(CS(=O)(=O)CC(=O)N3CCN(C)CC3)c(C)o2)c1 | inactive
* CCOC(=O)C1=C(C)N=c2sc(=Cc3cc(Cl)c(OCC(=O)O)c(Cl)c3)c(=O)n2C1c1cccc(OC)c1 (stereo unspecified) | inactive
* C=CCSc1nc2ccccc2c(=O)n1Cc1ccccc1 | 7.4% [at 30.8 µM] (inactive)
* Cc1ccc(C)c(CSc2nnc(C)n3c2cc2sccc23)c1 | inactive

**Query** // map `Cc1ccc(CSC2=NCCN2S(=O)(=O)c2ccc(F)cc2)cc1` to recorded activation (system: Rap guanine nucleotide exchange factor 3 (Homo sapiens))
**Result** 4.55% [at 30.8 µM] (inactive)

---

- experimental target: Rap guanine nucleotide exchange factor 3 (Homo sapiens) (UniProt O95398)
- run description: Counterscreen qHTS for agonist of cAMP-regulated guanine nucleotide exchange factor 3 (EPAC1) (AID 1645889); further: % of control where 0% means no effect; nearly all actives have a fitted effect of over 40% in size
- condition details: EPAC1 Rap1B-BODIPY-GDP exchange, fluorescence; series mostly up to 154 µM
Inconclusive results are not listed. Activity calls are given as the source filed them. Calls follow the shape of the dose curve; as a rule, active = well fitted activation curve with a large enough effect; inconclusive = small, poorly fitted or top-dose-only effect, or another doubt; inactive = no such curve, though single readings can be large or run the other way.
recorded metric: activation

Solved entries (count: 8):
• CC1CCN(C2(O)C(=O)Nc3ccc(Br)cc32)CC1 (configuration not stated) = inactive
• CCN(C(=O)c1noc2c1COc1ccc(C)cc1-2)c1cccc(C)c1 = inactive
• Cc1cc(C)n2nc(C(=O)N/N=C/c3c4ccccc4cc4ccccc34)nc2n1 = 34.9% [at 30.8 µM] (inactive)
• Cc1nnc(N2CCC(C(=O)NC3CCCCC3)CC2)c2nn(-c3ccccc3)c(C)c12 = inactive
• CC(C)(C)NC(=O)COC(=O)c1c2c(nc3ccccc13)CCC2 = 16.3% [at 30.8 µM] (inactive)
• Cc1c2cn[nH]c(=O)c2c(C)n1-c1ccccc1 = inactive
• CC1CC1c1ccc(/C=C(\C#N)C(=O)Nc2ccc(Cl)cc2)o1 (configuration not stated) = inactive
• Cc1ccc(CNC(=O)c2c[nH]n3c(=O)c(Cc4ccc(F)cc4Cl)c(C)nc23)cc1 = inactive

**Query** What value of measured activation is listed for COc1ccc(C2CC(=O)C3=C(C2)NC(C)=C(C#N)C3c2ccc(N(C)C)cc2)cc1 (configuration not stated) ?
**Result** 20% [at 30.8 µM] (inactive)

**Query** What measured activation goes with `Cc1ccccc1N=C(c1ccccc1)C1C(=O)c2ccccc2C1=O` ?
**Result** 13.3% [at 30.8 µM] (inactive)

**Query** # query: activation of entry `Cc1ccc(C(=O)NNC(=O)c2ccccc2O)cc1S(=O)(=O)N1CCCCC1`
**Result** inactive

---

- experimental target: Guanidinoacetate N-methyltransferase (Homo sapiens)
- run description: Confirmatory Screen for Target Class Profiling of Small Molecule Inhibitors of Methyltransferases (AID 1745852); on activity change, negative = inhibition: on the % scale 0 is the no-effect control and ±100 the full control effect
- condition details: MTase-Glo luminescence, SAH detection, recombinant enzyme; at 57.3 µM (top of the series) unless noted
Catalogue of compounds with associated activity change, negative = inhibition
// return numeric value only (unit: %, not printed)

• Cc1ccc(Cn2c(=O)c3ccccc3n3c(CCC(=O)NCCN4CCCC4)nnc23)cc1 = -1.98
• O=C(CCc1nnc2n(Cc3ccccc3Cl)c(=O)c3ccccc3n12)N1CCC(N2CCCCC2)CC1 = 0.582
• CCOc1c(CN(C)C(=O)Cn2cccc(OC)c2=O)cccc1OC = -5.47
• CC(C)OCCCn1c(=O)c2ccccc2n2c(CCC(=O)N3CCN(c4cccc(Cl)c4)CC3)nnc12 = 0
• COc1ccc(-c2n[nH]n3c2nc(=O)c2ccc(C(=O)NCc4ccc(OC)c(OC)c4)cc23)cc1 = 0.217

**Query** Could you share which activity change, negative = inhibition value was measured for CCCCN1C(=O)c2cc(C(=O)NCCc3ccccc3Cl)nn2CC1(C)C(=O)NC1CCCC1 (stereo not given) ?
**Result** 0

---

- experimental target: Rap guanine nucleotide exchange factor 3 (Homo sapiens) (UniProt O95398)
- run description: Counterscreen qHTS for agonist of cAMP-regulated guanine nucleotide exchange factor 3 (EPAC1) (AID 1645889); further: % of control where 0% means no effect; nearly all actives have a fitted effect of over 40% in size
- condition details: EPAC1 Rap1B-BODIPY-GDP exchange, fluorescence; series mostly up to 154 µM
Inconclusive results are not listed. Activity calls are given as the source filed them. The call rests on the fitted dose curve; in most records, active means well fitted activation curve with a large enough effect; inconclusive means small, poorly fitted or top-dose-only effect, or another doubt; inactive means no such curve, though single readings can be large or run the other way.
recorded metric: activation

Reference set, count: 4
* Cc1ccc(CNC(=O)c2c[nH]n3c(=O)c(Cc4ccc(Cl)cc4)c(C)nc23)cc1 | inactive
* Cc1cccc(S(=O)(=O)NC(=O)C2(C)CCN2C(=O)Cc2cc(F)ccc2F)c1 (stereo not given) | -2.2% [at 30.8 µM] (inactive)
* O=C(O)C1CC(=O)N(c2ccc(OCc3c(F)cccc3Cl)cc2)C1 (stereo not given) | inactive
* COc1ccc(/C=C2/C(=O)N(CC3CCCO3)C(=S)N2C)c(OC)c1 (stereo not given) | inactive

Turning to the following molecule.
**Query** So what activation did `CCC(CC)NC(=O)c1ccccc1Oc1ccccc1` get with Rap guanine nucleotide exchange factor 3 (Homo sapiens) (UniProt O95398)?
**Result** 13.2% [at 30.8 µM] (inactive)

---

Quick reference for activity among some molecules
- experimental target: Nicotinamide N-methyltransferase (Homo sapiens) (UniProt P40261)
- Sequence (P40261 whole entry, looked up): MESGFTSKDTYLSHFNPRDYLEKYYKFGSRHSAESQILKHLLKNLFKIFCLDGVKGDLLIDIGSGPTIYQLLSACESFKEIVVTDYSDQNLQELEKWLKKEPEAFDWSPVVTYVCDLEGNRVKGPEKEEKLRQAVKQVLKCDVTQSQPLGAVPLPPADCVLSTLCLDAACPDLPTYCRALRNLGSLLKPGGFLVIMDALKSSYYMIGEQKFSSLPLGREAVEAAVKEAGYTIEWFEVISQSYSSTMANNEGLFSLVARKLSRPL
- run description: Confirmatory Screen for Target Class Profiling of Small Molecule Inhibitors of Methyltransferases (AID 1745852)
- condition details: MTase-Glo luminescence, SAH detection, recombinant enzyme; measured here: NNMT max response; stronger effect = lower value
Just the number in %, nothing appended.

* O=S(=O)(c1ccc(Br)cc1)c1nnn2c1nc(NCCc1c[nH]c3ccccc13)c1ccccc12 | -1.21
* c1ccc(CN2CCNc3cnc(Nc4ccc(N5CCOCC5)cc4)cc3C2)cc1 | -15
* O=C(Nc1ccc2ncnc(N3CCCCC3)c2c1)C1CCCCC1 | -81.1
* CCCN1CCn2c3c(c4cc(OC)ccc42)CCN=C31 | -6.4
* COc1cccc(N2C(=O)NC(=NC3CCCCC3)C23CCCN(CC2CCCCC2)C3)c1 (stereo unspecified) | -50.3

**Query** Fill in: activity of Cc1cc2c(cc3n2CC(C)(C(=O)NC2CCCCCCC2)N(Cc2ccco2)C3=O)o1 (stereo unspecified) is ___
**Result** -37.5

**Query** For the molecule shown here, `Cn1c(=O)c2ccnn2c2ccc(C(=O)NCC3CCN(Cc4ccccc4F)CC3)cc21` , give the reported activity.
**Result** -38.8

**Query** What value of activity has been reported for the following molecule? CC1CCCCC1NC(=O)C1(C)Cn2c(cc3sccc32)C(=O)N1Cc1ccc(Cl)cc1 (stereo unspecified)
**Result** -8.12

**Query** Entry under review: CCCCN1C(=O)c2cc(C(=O)NCCc3ccccc3Cl)nn2CC1(C)C(=O)NC1CCCC1 (stereo unspecified) . Reported activity?
**Result** -0.43

**Query** Returns the measured activity for the input molecule. Input: `Cc1cnccc1NCCn1ccnc1-c1cc2n(n1)CCCNC2`
**Result** 0.35

**Query** Please look up its activity: `CN1CCC(N2CC[C@H](c3nc4ccccc4[nH]3)C2)CC1`
**Result** -26.5

**Query** Need activity, item `COCc1cc(NCCCNc2cccnc2)ncn1`
**Result** -14.1

**Query** Requested field: activity. Item: CC1CCCCN1CCNC(=O)Cn1ccc2cc(S(=O)(=O)N3CCCCC3)ccc21 (stereo unspecified)
**Result** -0.249

**Query** What value of activity has been reported for the following molecule? CN1CCCC2(C1)CN(C)c1ccc(C(=O)NCC3CCCCC3)cc12 (stereo unspecified)
**Result** -10.6

**Query** Sample CCCC1c2cccn2CCN1C(=O)Nc1ccccc1Cl (stereo unspecified) — what was its activity?
**Result** -4.51
